meta.source: patent US7858630B2

pKi: −log10 of the molar value.
Notes on pKi obtained with human serotonin 5-HT2A receptor (Homo sapiens).
Sequence (P28223 whole entry): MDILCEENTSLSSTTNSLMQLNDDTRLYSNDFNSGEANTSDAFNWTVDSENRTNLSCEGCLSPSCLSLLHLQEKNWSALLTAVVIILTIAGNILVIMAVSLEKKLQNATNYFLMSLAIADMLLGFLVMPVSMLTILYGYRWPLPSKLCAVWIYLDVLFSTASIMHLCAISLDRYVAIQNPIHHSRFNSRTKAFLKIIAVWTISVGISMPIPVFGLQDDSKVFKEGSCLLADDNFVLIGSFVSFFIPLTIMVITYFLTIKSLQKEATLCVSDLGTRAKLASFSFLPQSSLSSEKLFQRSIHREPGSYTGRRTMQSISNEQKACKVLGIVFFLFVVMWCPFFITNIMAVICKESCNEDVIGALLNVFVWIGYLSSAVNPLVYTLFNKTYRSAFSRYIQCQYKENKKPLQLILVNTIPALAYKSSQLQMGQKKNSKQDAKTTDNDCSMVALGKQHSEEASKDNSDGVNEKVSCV
measured-parameter: pKi

Would you please look over these solved cases?
{"columns": ["compound", "pKi"],
 "data": [
  ["COc1ccc(C(=O)N[C@H]2CC[C@H](CCN3CCN(c4noc5cc(F)c(Cl)cc45)CC3)CC2)s1", 8.13],
  ["CO[C@H]1CC[C@H](CC(=O)N[C@H]2CC[C@H](CCN3CCN(c4noc5cc(Cl)ccc45)CC3)CC2)CC1", 8.54],
  ["CO[C@H]1CC[C@H](CC(=O)N[C@H]2CC[C@H](CCN3CCN(c4noc5cc(F)c(Cl)cc45)CC3)CC2)CC1", 7.78],
  ["O=C(CC1OCCCO1)N[C@H]1CC[C@H](CCN2CCN(c3noc4ccc(F)cc34)CC2)CC1", 7.77]
]}

A = Cc1ccc2c(N3CCN(CC[C@H]4CC[C@H](NC(=O)CS(C)(=O)=O)CC4)CC3)noc2c1
B = COC1CCCC(C(=O)N[C@H]2CC[C@H](CCN3CCN(c4noc5ccc(F)cc45)CC3)CC2)C1 (stereo partly shown)
C = O=C(N[C@H]1CC[C@H](CCN2CCN(c3noc4cc(Cl)ccc34)CC2)CC1)C1(O)CC1
Order the records by pKi, with each subsequent value no larger than the one before. Note for the reader: the ranking is given by listing the labels in the order requested.
A, C, B
(A: 8.40, C: 8.09, B: 7.84)

###

study-system: human serotonin 5-HT2A receptor (Homo sapiens)
Construct: expressed in transfected cells; host or cells: HEK-293 EBNA cells, transient transfection; membrane preparation
assay-comment: Radioligand binding ([3H]-ketanserin) to membranes of HEK-293 EBNA cells expressing human 5-HT2A receptor
experimental-parameters: 1.1 nM [3H]-ketanserin, HEK-293 EBNA membranes, 1 h at RT
pKi: −log10 of the molar value.
measured-parameter: pKi

Worked examples, 5 compounds total:
{"columns": ["compound", "pKi"],
 "data": [
  ["CCC(=O)N[C@H]1CC[C@H](CCN2CCN(c3noc4cc(F)c(Cl)cc34)CC2)CC1 [Example 86]", 8.02],
  ["COCCC(=O)N[C@H]1CC[C@H](CCN2CCN(c3noc4cc(F)c(C)cc34)CC2)CC1 [Example 108]", 7.72],
  ["CO[C@H]1CC[C@H](C(=O)N[C@H]2CC[C@H](CCN3CCN(c4noc5cc(Cl)ccc45)CC3)CC2)CC1 [Example 54]", 8.08],
  ["CC(C)(O)CC(=O)N[C@H]1CC[C@H](CCN2CCN(c3noc4cc(Cl)ccc34)CC2)CC1 [Example 44]", 8.18],
  ["C[C@H](O)CC(=O)N[C@H]1CC[C@H](CCN2CCN(c3noc4cc(Cl)ccc34)CC2)CC1 [Example 45]", 8.04]
]}

a = O=C(CC1CC1)N[C@H]1CC[C@H](CCN2CCN(c3noc4cc(F)c(Cl)cc34)CC2)CC1 [Example 75]
b = COC[C@H]1C[C@H](CC(=O)N[C@H]2CC[C@H](CCN3CCN(c4noc5ccc(F)cc45)CC3)CC2)C1 [Example 27]
c = O=C(C[C@H]1CC[C@H](O)CC1)N[C@H]1CC[C@H](CCN2CCN(c3noc4cc(Cl)ccc34)CC2)CC1 [Example 43]
d = CCC(=O)N[C@H]1CC[C@H](CCN2CCN(c3noc4cc(F)c(F)cc34)CC2)CC1 [Example 59]
Put the compounds in ascending order of pKi. A ranking is expressed here by listing the labels in the requested order.
b, d, a, c

###

study-system: human dopamine D2 receptor (Homo sapiens)
Construct: membrane preparation
Sequence (P14416 whole entry): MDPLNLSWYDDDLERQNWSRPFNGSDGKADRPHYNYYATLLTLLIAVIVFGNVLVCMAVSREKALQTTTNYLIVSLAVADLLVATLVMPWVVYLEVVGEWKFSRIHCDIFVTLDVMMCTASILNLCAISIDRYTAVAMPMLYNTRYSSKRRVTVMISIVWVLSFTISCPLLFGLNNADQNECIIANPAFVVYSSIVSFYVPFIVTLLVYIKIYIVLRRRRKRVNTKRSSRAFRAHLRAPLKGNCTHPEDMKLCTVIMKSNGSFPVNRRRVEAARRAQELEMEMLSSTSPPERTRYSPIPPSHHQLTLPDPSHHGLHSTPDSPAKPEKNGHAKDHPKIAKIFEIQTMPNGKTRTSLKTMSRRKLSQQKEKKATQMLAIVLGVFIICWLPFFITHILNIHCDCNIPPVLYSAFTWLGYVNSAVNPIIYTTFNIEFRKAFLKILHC
assay-comment: Radioligand binding ([3H]-spiperone) to membranes of HEK-293 EBNA cells expressing human D2 receptor
experimental-parameters: human D2, 0.7 nM [3H]-spiperone, HEK-293 EBNA membranes, 1 h at RT
measured-parameter: Ki (nM)

{"columns": ["compound", "measurement-unit", "Ki"],
 "data": [
  ["O=C(CC1CCOCC1)N[C@H]1CC[C@H](CCN2CCN(c3noc4cc(F)c(F)cc34)CC2)CC1 [Example 63]", "nM", 9710],
  ["CO[C@H]1CC[C@H](CC(=O)N[C@H]2CC[C@H](CCN3CCN(c4noc5ccc(F)cc45)CC3)CC2)CC1 [Example 6]", "nM", 11800],
  ["COCCC(=O)N[C@H]1CC[C@H](CCN2CCN(c3noc4cc(Cl)ccc34)CC2)CC1 [Example 29]", "nM", 490]
]}

P = CC(=O)N[C@H]1CC[C@H](CCN2CCN(c3noc4cc(F)c(C)cc34)CC2)CC1 [Example 106]
Q = COCCC(=O)N[C@H]1CC[C@H](CCN2CCN(c3noc4cc(C)ccc34)CC2)CC1 [Example 98]
Endpoint returns whichever of P and Q has the numerically higher Ki. Reply with the label of the item you choose.
P

a = CC(C)(O)CC(=O)N[C@H]1CC[C@H](CCN2CCN(c3noc4cc(Cl)ccc34)CC2)CC1 [Example 44]
b = O=C(CC(F)(F)F)N[C@H]1CC[C@H](CCN2CCN(c3noc4cc(Cl)ccc34)CC2)CC1 [Example 53]
c = CC1(C)C[C@H](CC(=O)N[C@H]2CC[C@H](CCN3CCN(c4noc5ccc(F)cc45)CC3)CC2)CCO1 [Example 23]
d = COC1(C)CCC(CC(=O)N[C@H]2CC[C@H](CCN3CCN(c4noc5cc(Cl)ccc45)CC3)CC2)CC1 (some centres unmarked) [Example 39]
Sort the 4 compounds by Ki; largest first, smallest last. Lab note: final answer is the ordered label list.
d, c, a, b
(d: 3800 nM, c: 1060 nM, a: 325 nM, b: 172 nM)

A = O=C(CC1COC1)N[C@H]1CC[C@H](CCN2CCN(c3noc4cc(Cl)ccc34)CC2)CC1 [Example 47]
B = Cc1ccc2c(N3CCN(CC[C@H]4CC[C@H](NC(=O)CC5OCCCO5)CC4)CC3)noc2c1 [Example 101]
In the pair A and B , the larger recorded Ki belongs to which? Response format: the label of the selected entry.
B

A = O=C(CC1CC1)N[C@H]1CC[C@H](CCN2CCN(c3noc4cc(Cl)ccc34)CC2)CC1 [Example 52]
B = COCCC(=O)N[C@H]1CC[C@H](CCN2CCN(c3noc4ccc(C)cc34)CC2)CC1 [Example 104]
C = COC(CC(=O)N[C@H]1CC[C@H](CCN2CCN(c3noc4cc(C)ccc34)CC2)CC1)OC [Example 103]
D = CO[C@H]1CC[C@H](C(=O)N[C@H]2CC[C@H](CCN3CCN(c4noc5cc(Cl)ccc45)CC3)CC2)CC1 [Example 54]
Parameters: sort_field (Ki), sort_dir (desc). // format: requested-order list of labels
D, B, A, C
(D: 3850 nM, B: 554 nM, A: 315 nM, C: 206 nM)

###

pKi: −log10 of the molar value.
Quick record of pKi values for human dopamine D3 receptor (Homo sapiens).
measured-parameter: pKi

{"columns": ["molecule", "study-system", "experimental-result"],
 "data": [
  ["Cc1ccc2c(N3CCN(CC[C@H]4CC[C@H](NC(=O)CC5OCCCO5)CC4)CC3)noc2c1 [Example 101]", "human dopamine D3 receptor (Homo sapiens)", 8.08],
  ["CO[C@H]1CC[C@H](CC(=O)N[C@H]2CC[C@H](CCN3CCN(c4noc5cc(F)c(F)cc45)CC3)CC2)CC1 [Example 58]", "human dopamine D3 receptor (Homo sapiens)", 7.84],
  ["COC1(CC(=O)N[C@H]2CC[C@H](CCN3CCN(c4noc5cc(F)c(F)cc45)CC3)CC2)CCOCC1 [Example 62]", "human dopamine D3 receptor (Homo sapiens)", 7.87]
]}

I = O=C(CC1CCOCC1)N[C@H]1CC[C@H](CCN2CCN(c3noc4cc(Cl)c(F)cc34)CC2)CC1 [Example 72]
II = CCC(=O)N[C@H]1CC[C@H](CCN2CCN(c3noc4cc(Cl)ccc34)CC2)CC1 [Example 41]
III = NC(=O)CC(=O)N[C@H]1CC[C@H](CCN2CCN(c3noc4ccc(F)cc34)CC2)CC1 [Example 17]
hey, can you rank those molecules up there by pKi? biggest number first please List each label, following the requested order.
III, II, I
(III: 8.74, II: 8.06, I: 7.61)

a = O=C(N[C@H]1CC[C@H](CCN2CCN(c3noc4cc(Cl)ccc34)CC2)CC1)[C@H]1CCOC1 [Example 46]
b = COCC(=O)N[C@H]1CC[C@H](CCN2CCN(c3noc4ccc(F)cc34)CC2)CC1 [Example 9]
c = O=C(N[C@H]1CC[C@H](CCN2CCN(c3noc4cc(Cl)ccc34)CC2)CC1)C1(O)CC1 [Example 38]
Hey, can you sort those molecules up there by pKi, smallest first? // ordering of labels required in reply
a, c, b

P = CO[C@H]1CC[C@H](CC(=O)N[C@H]2CC[C@H](CCN3CCN(c4noc5cc(Cl)ccc45)CC3)CC2)CC1 [Example 31]
Q = COC1(C)CCC(CC(=O)N[C@H]2CC[C@H](CCN3CCN(c4noc5cc(Cl)ccc45)CC3)CC2)CC1 (stereo partly drawn) [Example 39]
R = O=C(C[C@H]1C[C@H](CO)C1)N[C@H]1CC[C@H](CCN2CCN(c3noc4cc(F)c(Cl)cc34)CC2)CC1 [Example 79]
Arrange the 3 molecules from largest to smallest pKi. Answer format: the labels, ordered as requested.
R, P, Q
